Origin of values: patent US20250346564A1

# IC50 per entry
Target: PARG (Homo sapiens (Human))
Experiment: PARG TFMU assay (4-(trifluoromethyl)umbelliferone substrate)
Format: biochemical
Settings: PARG 250 pM or 2 nM, 10-point dose response

Take a look at these entries with their results.
CC(C)C(=O)N1CCN(c2cc(S(=O)(=O)NC3COC3)cc3c2cnn3-c2nnc(C(F)F)s2)CC1 = 50 to 500 nM
CCn1c(=O)c2cc(S(=O)(=O)N[C@@]3(C#N)C[C@@H]3CO)ccc2n(CC)c1=O (single isomer, unassigned) = ≥ 5000 nM
CC(C)C(=O)N1CCN(c2cc(S(=O)(=O)NC3(CF)COC3)cc3c2cnn3-c2nncs2)CC1 = < 50 nM
O=C(O)/C=C/Cn1c(=O)[nH]c2ccc(S(=O)(=O)NC34CC(C3)C4)cc2c1=O = ≥ 5000 nM

Q: Consider the molecule "COc1cc(S(=O)(=O)NC2(C)COC2)cc2c1cnn2-c1nnc(C(F)F)s1" and give its measured IC50.
A: 50 to 500 nM

Q: Try this molecule next: CCn1c(=O)c2cc(S(=O)(=O)N[C@H]3CC[C@@H]3CO)ccc2n(CC)c1=O (single isomer, unassigned)
A: ≥ 5000 nM

Q: Now try CC[C@H]1C[C@@]1(C)NS(=O)(=O)c1ccc2c(c1)c(=O)n(CC)c(=O)n2CC (single isomer, unassigned) [Example 13D] .
A: ≥ 5000 nM

* * *

Target: PARG (Homo sapiens (Human), UniProt Q86W56)
Sequence (Q86W56 whole entry): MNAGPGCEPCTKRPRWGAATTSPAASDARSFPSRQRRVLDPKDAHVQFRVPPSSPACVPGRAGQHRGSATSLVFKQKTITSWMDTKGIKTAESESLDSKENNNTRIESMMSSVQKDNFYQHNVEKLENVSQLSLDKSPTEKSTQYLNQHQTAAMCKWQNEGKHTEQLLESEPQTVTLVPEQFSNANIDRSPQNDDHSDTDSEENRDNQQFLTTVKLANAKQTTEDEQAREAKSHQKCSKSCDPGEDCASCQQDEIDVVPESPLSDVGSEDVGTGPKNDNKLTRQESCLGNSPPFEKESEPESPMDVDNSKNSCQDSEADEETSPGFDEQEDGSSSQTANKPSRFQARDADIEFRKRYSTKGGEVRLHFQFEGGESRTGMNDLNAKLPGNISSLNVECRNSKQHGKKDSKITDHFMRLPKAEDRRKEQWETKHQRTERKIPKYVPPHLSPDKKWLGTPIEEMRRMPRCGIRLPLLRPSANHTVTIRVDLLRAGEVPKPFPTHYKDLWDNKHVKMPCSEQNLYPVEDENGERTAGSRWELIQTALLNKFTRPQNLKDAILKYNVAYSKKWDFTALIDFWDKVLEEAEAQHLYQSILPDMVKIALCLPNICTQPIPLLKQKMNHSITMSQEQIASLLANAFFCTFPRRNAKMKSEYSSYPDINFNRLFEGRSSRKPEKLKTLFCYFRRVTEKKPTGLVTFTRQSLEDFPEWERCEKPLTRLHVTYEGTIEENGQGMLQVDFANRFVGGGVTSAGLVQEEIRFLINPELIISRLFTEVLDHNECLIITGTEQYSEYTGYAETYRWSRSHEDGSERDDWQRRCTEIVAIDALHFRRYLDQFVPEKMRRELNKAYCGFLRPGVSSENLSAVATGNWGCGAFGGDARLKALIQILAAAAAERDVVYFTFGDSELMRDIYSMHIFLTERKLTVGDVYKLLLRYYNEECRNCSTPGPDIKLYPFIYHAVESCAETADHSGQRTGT
Assay: PARG TFMU assay (4-(trifluoromethyl)umbelliferone substrate)
Format: biochemical
Conditions: PARG 250 pM or 2 nM, 10-point dose response
Entries and their IC50

Reference set, count: 3
CC(C)C(=O)N1CCN(c2cc(S(=O)(=O)NC3(C)COC3)cc3c2cnn3-c2nncs2)CC1 [Example 46] = < 50 nM
CCn1c(=O)c2cc(S(=O)(=O)N[C@@]3(C#N)CO[C@H]3C)ccc2n(CC)c1=O (single isomer, unassigned) [Example 61] = 500 to 5000 nM
CC(C)C(=O)N1CCN(c2cc(S(=O)(=O)NC3(C)CCC3)cc3c2cnn3-c2nnc(C(F)F)s2)CC1 [Example 21] = 50 to 500 nM

Q: # get_value(readout='IC50', item= Cn1ncc2ccc(S(=O)(=O)NC3(C)COC3)cc21 [Example 72] )
A: ≥ 5000 nM

Q: Field entry: CC1(NS(=O)(=O)c2cc(Cl)c3cnn(-c4nnc(C(F)F)s4)c3c2)CC1CCO (stereo not shown) [Example 65]
A: 500 to 5000 nM

Q: Input CCn1c(=O)c2cc(S(=O)(=O)NC3(C)CNC3)ccc2n(CC)c1=O [Example 49]
A: 500 to 5000 nM

Q: Would you kindly repeat that for Cc1ncc(Cn2c(=O)c3cc(S(=O)(=O)NC4(C)COC4)ccc3n(Cc3sc(C)nc3C)c2=O)s1 [Example 14] ?
A: < 50 nM

* * *

Reported IC50 values for a set of compounds
Target: PARG (Homo sapiens (Human), UniProt Q86W56)
Experiment: PARG TFMU assay (4-(trifluoromethyl)umbelliferone substrate)
Assay type: biochemical
Conditions: PARG 250 pM or 2 nM, 10-point dose response

Completed entries (count: 5):
Cc1nnc(-n2ncc3c(N4CCN(C(=O)C(C)C)CC4)cc(S(=O)(=O)NC4(CF)COC4)cc32)s1 [Example 42] = < 50 nM
CNC(=O)/C=C/Cn1c(=O)[nH]c2ccc(S(=O)(=O)NC3(C)COC3)cc2c1=O [Example 19] = 500 to 5000 nM
CN(C)c1cc(S(=O)(=O)NC2(C)COC2)cc2c1cnn2-c1nnc(C(F)F)s1 [Example 26] = 50 to 500 nM
CC(C)C(=O)N1CCN(c2cc(S(=O)(=O)N[C@@]3(C)CO[C@H]3C)cc3c2cnn3-c2nnc(C(F)F)s2)CC1 (single isomer, unassigned) [Example 27] = < 50 nM
N#CC1(NS(=O)(=O)c2cc(N3CCN(C(=O)N4CCCC4)CC3)c3cnn(-c4nnc(C(F)F)s4)c3c2)COC1 [Example 38] = < 50 nM

Let us move to another entry and its IC50.
Q: Reported IC50 for COC(=O)/C=C/Cn1c(=O)c2cc(S(=O)(=O)NC3(C)COC3)ccc2n(CC2COC2)c1=O [Example 11] : what is it?
A: 500 to 5000 nM
